- measured on: T1, CotA-His6 (Clostridium difficile, UniProt Q186G8 SEQ:1-305)
- T1 sequence: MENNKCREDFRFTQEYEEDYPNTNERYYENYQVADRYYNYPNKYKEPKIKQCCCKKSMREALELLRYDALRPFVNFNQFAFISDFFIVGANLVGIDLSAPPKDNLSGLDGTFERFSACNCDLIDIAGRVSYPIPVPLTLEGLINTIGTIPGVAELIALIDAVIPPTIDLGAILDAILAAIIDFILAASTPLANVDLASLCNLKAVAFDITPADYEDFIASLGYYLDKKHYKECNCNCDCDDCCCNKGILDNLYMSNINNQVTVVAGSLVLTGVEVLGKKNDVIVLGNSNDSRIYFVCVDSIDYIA
- protocol description: SPR; 5.21E-08; protein immobilized
- reported conditions: tags: His6
measurement name: pKd
Formally, pKd is defined as -log10 of the concentration c, with c in mol/L.

INPUT: # get_value(readout='pKd', item= ACTCAAGGCCGTGGACTGGTCGGGTTTGGAT (ssDNA) [CotA C1.2] )
OUTPUT: 7.28
